- tested.system: T1, GvpC fused to NGFP or CGFP (Halobacterium salinarum, UniProt P24574 1-382)
- T1 construct: GvpC of the p-vac region of Halobacterium salinarum; gvpC amplified from the p-vac region; GFP fragment at the N- or C-terminus, 14 or 16 aa linker; source: Hfx. volcanii WR340 transformant, split-GFP fusion in living cells
- T1 sequence (looked up): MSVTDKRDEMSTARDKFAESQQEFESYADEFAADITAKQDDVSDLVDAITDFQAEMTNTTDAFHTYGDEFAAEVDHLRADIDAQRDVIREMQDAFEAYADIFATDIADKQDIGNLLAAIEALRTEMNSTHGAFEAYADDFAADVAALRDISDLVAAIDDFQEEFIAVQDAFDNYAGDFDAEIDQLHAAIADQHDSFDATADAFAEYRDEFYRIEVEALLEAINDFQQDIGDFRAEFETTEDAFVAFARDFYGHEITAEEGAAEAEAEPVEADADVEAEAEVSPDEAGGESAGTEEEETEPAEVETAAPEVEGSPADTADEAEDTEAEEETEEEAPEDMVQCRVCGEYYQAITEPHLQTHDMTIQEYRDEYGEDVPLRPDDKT
- method: split reporter (BiFC, NanoBiT); split-GFP (NGFP and CGFP of salt-stable mGFP2) in Hfx. volcanii transformants, 24 h 37 °C then 24 h 30 °C; relative fluorescence (rf) against the wild type; the highest of eight tag combinations is given
- condition.info: partners not purified
value.kind: relative fluorescence (rf)

The examples below pair each entry with its known result.
GvpF fused to NGFP or CGFP (natural protein, Halobacterium salinarum, UniProt Q9HI21 1-213, looked up, GvpF (wild type) of the p-vac region of Halobacterium salinarum; R213 is the very last aa; parent of the GvpF variants; also called Fwt; WT; source: Hfx. volcanii WR340 transformant, split-GFP fusion in living cells) MTENLYTYGIIEQEDLELDVEGVAGAEQVYTVDYKTLSAVVSDIDTTDPERTDEDVEAHNNVLQEVLKHEEERTVVPMSFGMAFKSARTLKGVLRGARRALRSTLNDIEGTVELGVKILGPGDDTVPREEIQENVTDQLADLSINETENDLFTDRLIINKSYLVDFEKRDAFDSAIDDVEAEYDELTIQYTGPWPPYNFVDIHIGAEQQQGGR = > 7.5 LAU/mm^2
GvpH fused to NGFP or CGFP (natural protein, Halobacterium salinarum, UniProt P24372 1-182, looked up, accessory gas vesicle protein GvpH of Halobacterium salinarum; construct of earlier work; source: Hfx. volcanii WR340 transformant, split-GFP fusion in living cells) MVPDENDDASDDQSSQLSGLLDQLHTLVEVLADIEEEGGHRHESGRIDRGNARIDYDYDVSIGLGRADGSSYDEEPSSNRSRSEQRSGQQRTTEDSIHVETRGGTSGDELVVVADLPGVTDDDVDVALDTDEQALTLRVDDDVVERVVLDRPDVAITDMTLRNQVLEIRLARTSDTDGGEST = > 7.5 LAU/mm^2
GvpO fused to NGFP or CGFP (natural protein, Halobacterium salinarum, UniProt O51968 1-119, looked up, GvpO of the p-vac region of Halobacterium salinarum; gvpO amplified from the p-vac region; GFP fragment at the N- or C-terminus, 14 or 16 aa linker; source: Hfx. volcanii WR340 transformant, split-GFP fusion in living cells) MADPANDRSEREEGGEDDETPPASDGNPSPSANSFTLSNAQTRAREAAQDLLEHQFEGMIKAESNDEGWRTVVEVVERNAVPDTQDIIGRYEITLDGTGDVTGYELLERYRRGDMKEEL = < 5 LAU/mm^2
GvpI fused to NGFP or CGFP (natural protein, Halobacterium salinarum, UniProt Q9HI24 1-144, looked up, accessory gas vesicle protein GvpI of Halobacterium salinarum; construct of earlier work; source: Hfx. volcanii WR340 transformant, split-GFP fusion in living cells) MSDKQQQKHKQKARQARVKAQINRDKARRNLLRQREKLARRRTRNRKQSEPRRDDSDGDDTDGETVKNPAAHSTMPPQKSNAENAVRNSHSTVPKTPKYSDVTARERLYGQRLHQKTAGGNSEASAPSDESASGSPTEDEVNDE = > 7.5 LAU/mm^2

Requested read-out: relative fluorescence (rf). Entry: GvpL fused to NGFP or CGFP (natural protein, Halobacterium salinarum, UniProt Q9HI27 1-281, looked up, accessory gas vesicle protein GvpL of Halobacterium salinarum; construct of earlier work; source: Hfx. volcanii WR340 transformant, split-GFP fusion in living cells) MTDHRPSPEEEQTTANEERTVSNGRYLYCVVDTTSSESATLSTTGVDDNPVYVVEADGVGAVVHDCETVYETEDLEQVKRWLVTHQQVVDAASDAFGTPLPMRFDTVLEGGDASIERWLEDHYEGFRDELASFAGVWEYRINLLWDSAPFEETIADRDDRLRELRQRQQQSGAGKKFLLEKQSDQRLQELKRERRTELADQLKEAITPVVNDLTEQDTNTPLQDEHSSIEKEQIVRFAVLADEDDETALGDRLDTIVEHEGVEIRFTGPWPPYTFAPDIGK 28.6 LAU/mm^2
